Entry source: PubChem BioAssay AID1745844

test system: rodent lifetime carcinogenesis bioassay, tumor incidence TD50; assay: carcinogenic potency in animals, long-term in vivo studies, CPDB compilation (AID 1745844); settings: mouse; strain Swiss albino; males; in drinking water; site: lung; lesion: several types; types named in the paper; dosed 101 weeks; study length 101 weeks

test.smiles	measured.target	TD50
NNC(=O)c1cccnc1	rodent lifetime carcinogenesis bioassay, tumor incidence TD50	528 mg/kg/day

---

tested on: rodent lifetime carcinogenesis bioassay, tumor incidence TD50; test: carcinogenic potency in animals, long-term in vivo studies, CPDB compilation (AID 1745844); settings: rat; strain Osborne-Mendel; males; in feed; site: any site (literature study); lesion: several types; types named in the paper; dosed 80 weeks; study length 109 weeks
The source made the active and inactive calls. No rule for the calls is given here.

molecule	measured.target	TD50
O=C1C2(Cl)C3(Cl)C4(Cl)C(Cl)(Cl)C5(Cl)C3(Cl)C1(Cl)C5(Cl)C24Cl (configuration not stated)	rodent lifetime carcinogenesis bioassay, tumor incidence TD50	1.42 mg/kg/day (inactive)
ClC1=C(Cl)C2(Cl)C3C(Cl)C(Cl)CC3C1(Cl)C2(Cl)Cl (configuration not stated)	rodent lifetime carcinogenesis bioassay, tumor incidence TD50	21.6 mg/kg/day

---

system: rodent lifetime carcinogenesis bioassay, tumor incidence TD50; experiment: carcinogenic potency in animals, long-term in vivo studies, CPDB compilation (AID 1745844); settings: mouse; strain B6C3F1; females; by gavage; site: myocardium; lesion: sarcoma, NOS; dosed 52 weeks; study length 84 weeks

test.smiles	measured.target	TD50
C[C@]12CC[C@@H]3c4ccc(OC(=O)Cc5ccc(N(CCCl)CCCl)cc5)cc4CC[C@H]3[C@@H]1CC[C@@H]2OC(=O)Cc1ccc(N(CCCl)CCCl)cc1	rodent lifetime carcinogenesis bioassay, tumor incidence TD50	3.01 mg/kg/day

---

tested on: rodent lifetime carcinogenesis bioassay, tumor incidence TD50; experiment: carcinogenic potency in animals, long-term in vivo studies, CPDB compilation (AID 1745844); conditions: monkey; strain Cynomolgus [Macaca fascicularis]; both sexes; several routes; site: bone; lesion: osteosarcoma; dosed 825 weeks; study length 980 weeks
readout.label: TD50 (mg/kg/day)

test.smiles	measured.target	readout.label	readout.value
CNNCc1ccc(C(=O)NC(C)C)cc1	rodent lifetime carcinogenesis bioassay, tumor incidence TD50	TD50	5.91

---

We begin with a simple list: items and their reported TD50.
tested on: rodent lifetime carcinogenesis bioassay, tumor incidence TD50; assay: carcinogenic potency in animals, long-term in vivo studies, CPDB compilation (AID 1745844); settings: mouse; strain ICR; females; in feed; site: liver; lesion: hepatocellular adenoma; dosed 78 weeks; study length 78 weeks
Calls of active or inactive are those of the source. The rule behind the calls is not given here.

compound	TD50
CCn1cc(C(=O)O)c(=O)c2cc3c(cc21)OCO3	572 mg/kg/day
COC(=O)C1=C(C)NC(C)=C(C(=O)OCCN2CCN(C(c3ccccc3)c3ccccc3)CC2)C1c1cccc([N+](=O)[O-])c1 (configuration not stated)	545 mg/kg/day (inactive)

---

test system: rodent lifetime carcinogenesis bioassay, tumor incidence TD50; experiment: carcinogenic potency in animals, long-term in vivo studies, CPDB compilation (AID 1745844); settings: rat; strain Osborne-Mendel; females; in feed; site: any site (literature study); lesion: benign tumor; dosed 104 weeks; study length 104 weeks
Calls of active or inactive are those of the source. No rule for the calls is given here.
We begin with a simple list: items and their reported TD50.
readout.label: TD50

compound	readout.value
CC(COc1ccc(C(C)(C)C)cc1)OS(=O)OCCCl (configuration not stated)	31.5 mg/kg/day (inactive)
NC(N)=S	15 mg/kg/day (inactive)
